# system.tested: T1, B7-H3 on MDA-MB-468 cells (human, UniProt Q5ZPR3)
# T1 construct: endogenous, on the cell surface
# T1 sequence (cell surface antigen, looked up): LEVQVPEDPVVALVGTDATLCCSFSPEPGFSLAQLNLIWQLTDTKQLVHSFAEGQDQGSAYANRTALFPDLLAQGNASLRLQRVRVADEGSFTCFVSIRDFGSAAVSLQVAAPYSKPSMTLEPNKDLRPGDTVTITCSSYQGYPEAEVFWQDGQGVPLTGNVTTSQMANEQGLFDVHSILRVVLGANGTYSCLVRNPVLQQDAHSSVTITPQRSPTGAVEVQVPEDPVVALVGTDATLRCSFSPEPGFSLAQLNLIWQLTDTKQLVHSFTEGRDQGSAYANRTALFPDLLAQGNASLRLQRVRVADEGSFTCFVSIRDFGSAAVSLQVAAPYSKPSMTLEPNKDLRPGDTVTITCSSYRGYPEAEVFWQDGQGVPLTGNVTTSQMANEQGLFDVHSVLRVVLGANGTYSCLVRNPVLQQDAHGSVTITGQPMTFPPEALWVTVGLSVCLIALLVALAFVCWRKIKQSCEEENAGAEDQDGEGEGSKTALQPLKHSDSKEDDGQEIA
# experiment: flow cytometry on MDA-MB-468 cells; blank V2-R 0.9%
recorded.endpoint: % of cells in gate V1-R at 1.23 nM (%)

Antibody V1 (antibody, human IgG1, kappa, V domains shown, Humanized from chimeric antibody M1; also called humanized antibody V1) VH: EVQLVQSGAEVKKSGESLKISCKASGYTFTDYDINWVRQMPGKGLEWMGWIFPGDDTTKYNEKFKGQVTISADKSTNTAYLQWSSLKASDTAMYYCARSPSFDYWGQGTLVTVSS VL: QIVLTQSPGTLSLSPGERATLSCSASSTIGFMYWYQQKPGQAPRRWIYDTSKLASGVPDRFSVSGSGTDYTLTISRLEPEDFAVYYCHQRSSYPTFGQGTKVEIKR
8.6
Antibody M1 (antibody, human IgG1, kappa, V domains shown, Chimeric antibody: murine variable regions on human IgG1 and light chain constant regions; expressed in HEK293F cells; also called chimeric antibody M1) VH: QVQLQQSGPELVKPGASVRISCKASGYTFTDYDINWVQQRPGQGLEWIGWIFPGDDTTKYNEKFKGRATLTADKSSNTAYMQLNGLTSENSAVYFCARSPSFDYWGQGTLVTVSS VL: QIVLTQSPAIMSASPGERVTMTCSASSTIGFMYWYQQKPGTSPKRWIYDTSKLASGVPARFSVSGSGTSYSLTISSMEAEDAATYYCHQRSSYPTFGGGTKLEIKR
93.1
control Antibody M30-H1-L4 (antibody, human IgG1, kappa, V domains shown, Control anti-B7-H3 antibody) VH: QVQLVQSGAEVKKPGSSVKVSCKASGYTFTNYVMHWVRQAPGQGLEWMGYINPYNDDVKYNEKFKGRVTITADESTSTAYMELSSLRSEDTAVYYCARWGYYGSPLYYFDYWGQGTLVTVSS VL: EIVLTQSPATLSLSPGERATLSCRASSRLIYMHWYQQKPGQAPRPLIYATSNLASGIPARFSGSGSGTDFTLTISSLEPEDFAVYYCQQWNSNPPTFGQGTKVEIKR
4
Antibody V2 (antibody, human IgG1, kappa, V domains shown, Humanized from chimeric antibody M1; also called humanized antibody V2) VH: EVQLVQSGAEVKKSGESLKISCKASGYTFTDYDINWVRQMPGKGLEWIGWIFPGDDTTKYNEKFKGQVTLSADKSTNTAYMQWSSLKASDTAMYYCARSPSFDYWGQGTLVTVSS VL: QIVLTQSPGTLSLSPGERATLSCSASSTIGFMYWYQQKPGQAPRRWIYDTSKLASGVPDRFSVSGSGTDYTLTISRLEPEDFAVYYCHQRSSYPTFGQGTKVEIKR
1.3
Antibody V3 (antibody, human IgG1, kappa, V domains shown, Humanized from chimeric antibody M1; also called humanized antibody V3) VH: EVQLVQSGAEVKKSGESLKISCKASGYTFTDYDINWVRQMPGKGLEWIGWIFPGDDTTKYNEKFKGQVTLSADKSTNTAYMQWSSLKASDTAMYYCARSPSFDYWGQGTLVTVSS VL: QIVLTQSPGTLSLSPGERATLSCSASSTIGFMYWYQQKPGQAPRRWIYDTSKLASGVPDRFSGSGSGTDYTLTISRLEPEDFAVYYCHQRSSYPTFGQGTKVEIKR
86.4
Antibody V5 (antibody, human IgG1, kappa, V domains shown, Humanized from chimeric antibody M1; also called humanized antibody V5) VH: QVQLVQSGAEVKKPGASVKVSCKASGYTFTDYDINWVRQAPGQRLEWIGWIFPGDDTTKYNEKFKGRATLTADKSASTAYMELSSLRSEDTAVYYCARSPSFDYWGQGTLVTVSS VL: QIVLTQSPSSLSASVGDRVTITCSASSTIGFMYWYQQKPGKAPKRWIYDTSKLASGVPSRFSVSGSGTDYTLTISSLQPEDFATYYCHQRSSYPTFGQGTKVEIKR
73.5
